# ASSAY TARGET: UniProtKB Q15858
# PROCEDURE SUMMARY: Nav1.7 (hSCN9A) PatchXpress electrophysiology assay
# CONDITION DETAILS: estimated IC50 from single point electrophysiology data; PatchXpress platform; HEK cells expressing hSCN9A, held at V1/2 of inactivation; read-out: Nav1.7 EIC50
Items are presented alongside their recorded pIC50.
The meaning of pIC50 here: minus log10 of the concentration in molar units.

Consider the worked cases shown below.
{"MOLECULE": "CN(C)S(=O)(=O)NC(=O)c1cc(F)c(Oc2cnc(OCC(C)(C)F)c(Cl)c2)cc1F", "ASSAY TARGET": "UniProtKB Q15858", "TEST READOUT": "pIC50", "ASSAY RESULT": 6.30}
{"MOLECULE": "CNS(=O)(=O)NC(=O)c1ccc(Oc2ccc(Cl)c(C(F)(F)F)c2)cc1", "ASSAY TARGET": "UniProtKB Q15858", "TEST READOUT": "pIC50", "ASSAY RESULT": 5.32}
{"MOLECULE": "CN(C)S(=O)(=O)NC(=O)c1cc(F)c(Oc2cnc(OCC3CC3)c(Cl)c2)cc1F", "ASSAY TARGET": "UniProtKB Q15858", "TEST READOUT": "pIC50", "ASSAY RESULT": 6.54}
{"MOLECULE": "CC(C)COc1ncc(Oc2ccc(C(=O)NS(N)(=O)=O)cc2)cc1Cl", "ASSAY TARGET": "UniProtKB Q15858", "TEST READOUT": "pIC50", "ASSAY RESULT": 5.20}

Bench note: what pIC50 did `O=C(NS(=O)(=O)N1CCC1)c1cc(Cl)c(Oc2ccc(Cl)c(Cl)c2)cc1F` show?
7.00

* * *

# ASSAY TARGET: Nav1.7 (or SCN9A) channel (Homo sapiens)
# Sequence (Q15858 whole entry): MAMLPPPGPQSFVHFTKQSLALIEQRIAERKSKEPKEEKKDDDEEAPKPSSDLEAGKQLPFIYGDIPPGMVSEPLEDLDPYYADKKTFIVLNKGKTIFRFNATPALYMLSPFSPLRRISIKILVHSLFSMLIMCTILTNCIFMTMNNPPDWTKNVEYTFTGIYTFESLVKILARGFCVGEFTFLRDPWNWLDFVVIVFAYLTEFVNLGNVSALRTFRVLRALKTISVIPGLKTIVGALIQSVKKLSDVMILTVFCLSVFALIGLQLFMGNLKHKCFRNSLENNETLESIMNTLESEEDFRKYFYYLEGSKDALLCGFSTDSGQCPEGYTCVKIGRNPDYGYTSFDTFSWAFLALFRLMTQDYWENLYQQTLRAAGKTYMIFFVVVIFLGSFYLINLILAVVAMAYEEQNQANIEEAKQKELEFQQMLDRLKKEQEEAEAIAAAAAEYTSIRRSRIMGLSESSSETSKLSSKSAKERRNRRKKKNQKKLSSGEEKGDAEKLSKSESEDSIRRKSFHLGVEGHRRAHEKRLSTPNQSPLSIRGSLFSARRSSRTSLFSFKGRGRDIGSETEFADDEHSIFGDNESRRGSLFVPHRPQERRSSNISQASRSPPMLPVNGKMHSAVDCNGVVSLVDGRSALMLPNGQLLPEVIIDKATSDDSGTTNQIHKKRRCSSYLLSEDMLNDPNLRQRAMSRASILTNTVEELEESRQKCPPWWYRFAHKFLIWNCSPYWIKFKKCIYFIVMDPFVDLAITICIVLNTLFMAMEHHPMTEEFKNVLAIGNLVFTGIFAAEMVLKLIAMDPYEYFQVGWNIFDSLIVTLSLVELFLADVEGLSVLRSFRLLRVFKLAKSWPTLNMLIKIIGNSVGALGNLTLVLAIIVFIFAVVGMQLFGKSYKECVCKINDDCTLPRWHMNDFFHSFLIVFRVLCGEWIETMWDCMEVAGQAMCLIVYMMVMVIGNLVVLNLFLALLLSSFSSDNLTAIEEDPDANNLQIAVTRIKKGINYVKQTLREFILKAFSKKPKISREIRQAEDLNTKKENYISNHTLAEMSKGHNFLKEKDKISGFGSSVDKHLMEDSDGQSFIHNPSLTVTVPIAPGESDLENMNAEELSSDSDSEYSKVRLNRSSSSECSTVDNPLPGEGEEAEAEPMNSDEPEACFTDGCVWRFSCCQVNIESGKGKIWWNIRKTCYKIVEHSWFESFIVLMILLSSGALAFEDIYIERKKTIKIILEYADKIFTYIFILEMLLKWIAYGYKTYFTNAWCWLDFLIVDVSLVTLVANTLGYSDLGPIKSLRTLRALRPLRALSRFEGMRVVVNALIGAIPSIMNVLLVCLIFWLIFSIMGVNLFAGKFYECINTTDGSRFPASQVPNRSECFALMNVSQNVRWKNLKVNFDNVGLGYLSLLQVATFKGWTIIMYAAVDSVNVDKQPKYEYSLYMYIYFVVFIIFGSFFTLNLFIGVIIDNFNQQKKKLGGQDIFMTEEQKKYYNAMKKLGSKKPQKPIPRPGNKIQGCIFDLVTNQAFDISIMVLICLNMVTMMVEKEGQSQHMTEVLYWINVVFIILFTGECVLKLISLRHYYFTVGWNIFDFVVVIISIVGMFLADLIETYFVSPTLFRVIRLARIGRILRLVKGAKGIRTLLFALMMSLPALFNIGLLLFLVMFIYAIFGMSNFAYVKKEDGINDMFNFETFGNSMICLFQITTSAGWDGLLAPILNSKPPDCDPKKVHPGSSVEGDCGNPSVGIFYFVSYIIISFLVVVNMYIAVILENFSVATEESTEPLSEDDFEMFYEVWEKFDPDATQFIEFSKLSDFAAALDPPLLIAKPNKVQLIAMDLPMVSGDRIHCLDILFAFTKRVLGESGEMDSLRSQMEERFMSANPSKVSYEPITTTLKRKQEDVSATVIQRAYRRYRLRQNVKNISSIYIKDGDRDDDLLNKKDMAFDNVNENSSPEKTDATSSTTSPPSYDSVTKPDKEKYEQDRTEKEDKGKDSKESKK
# PROCEDURE SUMMARY: Nav1.7 (hSCN9A) PatchXpress electrophysiology assay
# CONDITION DETAILS: estimated IC50 from single point electrophysiology data; PatchXpress platform; HEK cells expressing hSCN9A, held at V1/2 of inactivation; read-out: Nav1.7 EIC50
Structures can show the parent of a compound that is named as a salt.
TEST READOUT: IC50 (nM)
I only need the number, in nM, no unit after it.

{"MOLECULE": "CN(C)S(=O)(=O)NC(=O)c1ccc(Oc2ccc(Cl)cc2-c2ccnnc2)cc1", "TEST READOUT": "IC50", "UNIT": "nM", "ASSAY RESULT": 4900}
{"MOLECULE": "CCNS(=O)(=O)NC(=O)c1ccc(Oc2ccccc2-c2ccccc2)c(C#N)c1", "TEST READOUT": "IC50", "UNIT": "nM", "ASSAY RESULT": 10000}
{"MOLECULE": "CN(C)c1ncc(Oc2cc(F)c(C(=O)NS(=O)(=O)N(C)C)cc2F)cc1Cl [Example 22, formate salt]", "TEST READOUT": "IC50", "UNIT": "nM", "ASSAY RESULT": 2500}
{"MOLECULE": "CN(CC1CC1)c1ncc(Oc2cc(F)c(C(=O)NS(=O)(=O)N(C)C)cc2F)cc1Cl [Example 23, formate salt]", "TEST READOUT": "IC50", "UNIT": "nM", "ASSAY RESULT": 670}
{"MOLECULE": "N#Cc1cc(C(=O)NS(N)(=O)=O)ccc1Oc1ccccc1-c1ccccc1", "TEST READOUT": "IC50", "UNIT": "nM", "ASSAY RESULT": 34000}
{"MOLECULE": "CN(C)S(=O)(=O)NC(=O)c1cc(F)c(Oc2cnc(OCC(F)(F)F)c(Cl)c2)cc1F", "TEST READOUT": "IC50", "UNIT": "nM", "ASSAY RESULT": 590}
{"MOLECULE": "CN(C)S(=O)(=O)NC(=O)c1cc(F)c(Oc2cnc(N3CCC(F)C3)c(Cl)c2)cc1F (stereo not shown) [Example 20, formate salt]", "TEST READOUT": "IC50", "UNIT": "nM", "ASSAY RESULT": 1200}
{"MOLECULE": "O=C(NS(=O)(=O)N1CCC1)c1cc(Cl)c(Oc2cnc(OCC(F)(F)C(F)F)c(Cl)c2)cc1F", "TEST READOUT": "IC50", "UNIT": "nM", "ASSAY RESULT": 100}

Given the entry CC(Oc1ncc(Oc2cc(F)c(C(=O)NS(=O)(=O)N(C)C)cc2F)cc1Cl)C(F)(F)F (stereo not shown) , report its measured IC50.
660

Given the entry CN(C)S(=O)(=O)NC(=O)c1cc(F)c(Oc2cnc(NC34CC(C3)C4)c(Cl)c2)cc1F [Example 28, formate salt] , report its measured IC50.
160

What value of IC50 has been reported for the following molecule? `COc1cc(Cl)ccc1Oc1ccc(C(=O)NS(=O)(=O)N(C)C)cc1`
7100

Given `COc1cc(Cl)ccc1Oc1cc(F)c(C(=O)NS(N)(=O)=O)cc1F` , state its recorded IC50.
7300

Consider the molecule CN(C)S(=O)(=O)NC(=O)c1cc(F)c(Oc2cnc(NCC3CC3)c(Cl)c2)cc1F [Example 21, formate salt] and give its measured IC50.
600

Record request: IC50 value, item `COc1cccc(Oc2cc(F)c(C(=O)NS(=O)(=O)N(C)C)cc2F)c1`
7500

Name the reported IC50 value associated with the molecule `CC(C)Oc1ncc(Oc2cc(F)c(C(=O)NS(=O)(=O)N(C)C)cc2F)cc1Cl`
470

Values were extracted from patent US20150291514A1.
